Reported Onset Time/min values follow for various compounds
# Tested on: sciatic nerve of the rat
# Format: in vivo, SD rats
# Condition parameters: 2 mg/ml, 5 ml/kg, single injection near the sciatic nerve of the rat; hot plate 50±0.1° C.

Compound	Target entity	Onset Time/min / min
CCCC[N+]1(CCCCOc2c(C)cc(C)cc2C)CCCC[C@H]1C(=O)Nc1c(C)cccc1C (stereo partly shown)	sciatic nerve of the rat	1
CCCC[N+]1(CCCCCNc2ccc(F)cc2)CCCC[C@H]1C(=O)Nc1c(C)cccc1C (stereo partly shown)	sciatic nerve of the rat	2
CCCC[N+]1(CCCCOc2ccc(F)cc2)CCCC[C@H]1C(=O)Nc1c(C)cccc1C (stereo partly shown)	sciatic nerve of the rat	1
CCCC[N+]1(CCCCOc2cccc(C(F)(F)F)c2)CCCC[C@H]1C(=O)Nc1c(C)cccc1C (stereo partly shown)	sciatic nerve of the rat	1
CCCC[N+]1(CCCCNc2ccc(C)cc2)CCCC[C@H]1C(=O)Nc1c(C)cccc1C (stereo partly shown)	sciatic nerve of the rat	1
CCCC[N+]1(CCCCCN2CCn3ccnc3C2)CCCC[C@H]1C(=O)Nc1c(C)cccc1C (stereo partly shown)	sciatic nerve of the rat	1
CCCC[N+]1(CCC(C)CCNc2ccc(F)cc2)CCCC[C@H]1C(=O)Nc1c(C)cccc1C (stereo partly shown)	sciatic nerve of the rat	2

* * *

# Test system: sciatic nerve of the rat
# Type: in vivo, SD rats
# Condition parameters: rat, in vivo
Reported Duration/h values follow for various molecules
Measured endpoint: Duration/h

Molecule	Measured endpoint	Value measured
CCCC[N+]1(CCCCOc2cccc(C)c2)CCCC[C@H]1C(=O)Nc1c(CC)cccc1CC (some centres unmarked)	Duration/h	2 to 24 h
CCCC[N+]1(CCCCCOc2ccccc2)CCCC[C@H]1C(=O)Nc1c(C)cccc1C (some centres unmarked)	Duration/h	24 to 48 h
Cc1cccc(C)c1NC(=O)[C@@H]1CCCC[N+]1(CCCCOc1ccccc1)CCCC(C)C (some centres unmarked)	Duration/h	48 to 72 h
CCCC[N+]1(CCCCOc2ccccc2)CCCC[C@H]1C(=O)Nc1c(C)cccc1C (some centres unmarked)	Duration/h	48 to 72 h
CCCC[N+]1(CCCCNc2ccc(Cl)cc2)CCCC[C@H]1C(=O)Nc1c(C)cccc1C (some centres unmarked)	Duration/h	24 to 48 h
CCCC[N+]1(CCCCOc2ccccc2)CCCC[C@H]1C(=O)Nc1c(Br)cccc1Br (some centres unmarked)	Duration/h	32 to 48 h
CCCC[N+]1(CCCOc2ccccc2)CCCC[C@H]1C(=O)Nc1c(C)cccc1C (some centres unmarked)	Duration/h	0 h
CCCC[N+]1(CCCCOc2ccccc2C)CCCC[C@H]1C(=O)Nc1c(C)cccc1C (some centres unmarked)	Duration/h	72 to 96 h
